Source of measurements: patent US20050058639A1

This listing pairs binders with measured ELISA OD.
Molecular target: T1, recombinant human MCP-2 (human, UniProt P80075 24-99)
T1 construct: also called rhMCP-2
T1 sequence (looked up): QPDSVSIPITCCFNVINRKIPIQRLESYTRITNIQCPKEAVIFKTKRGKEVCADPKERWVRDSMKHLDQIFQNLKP
Experiment: ELISA, coated antigen
ASSAY ENDPOINT: ELISA OD (OD450)

INSERT INTO measurements (binder, assay_endpoint, value_measured) VALUES
  ('anti-MCP-1 mAb 5.1 (antibody, V domains shown) VH: EQSGGGVVQPGRSLRLSCAASGFTFSSYGMHWVRQAPGKGLEWVAVIWYDGNNKYYADSVKGRFTISRDTSKNTLYLQMNSLRAEDTAVYYCARDSSSYYYYGMDVWGQGTTVTVSS VL: NFMLTQPHSVSESPGKTVTISCTRSSGSIASNYVQWFQQRPGSSPTTVIYEDDQRPSGVPDRFCGSIDSSSNSASLTISGLRTEDEADYYCQSYDSSNHVVFGGGTKLTVLG', 'ELISA OD', 0.051),
  ('anti-MCP-1 mAb 3.4.1 (antibody, V domains shown) VH: QVQLVQSGAEVKKPGASVKVSCKVSGYTLTELSMHWVRQAPGKGLEWMGGFDPEDGETMYAQKFQGRVTMTEDTSTDTAYMELSSLRSEDTAVYYCATDDFWSGYFDYWGQGTLVTVSS VL: DIVMTQSPDSLAVSLDERATINCKSSQSVLYSPNQKNYLVWYQQKPGQPPKLLLYWASIRESGVPDRFSGSGSGTDFTLTISSLQAEDVAVYYCQQSYFTPWTFGQGTKVEIKR', 'ELISA OD', 0.042),
  ('anti-MCP-1 mAb 3.16.1 (antibody, V domains shown) VH: QVQLVQSGAEVKKPGASVKVSCKVSGYTLTDLSMHWVRQAPGKGLEWMGGFDPEDGETIYAQKFQGRVTMTEDTSSDTAYMELSSLRSEDTAVYYCATHEFWSGYFDYWGQGTLVTVSS VL: DIVMTQSPDSLAVSLGERATINCKSSQSVLFSSNNKSYLTWYQQKPGQPPKLLIFWASIRESGVPDRISGSGSGTDLTLTISSLQAEDAAVYYCQQYYSSPWTFGQGTKVEIKR', 'ELISA OD', 0.049);
